Each recorded value in this set is attributed to patent US11840686B2.

Tested on: human PKK mRNA
PROTOCOL: Antisense inhibition of human PKK mRNA in HepaRG cells, 1,000 nM, MOE/deoxy/cEt oligonucleotides (Example 3)
Assay type: cell-based
PROTOCOL_CONDITIONS: Table 22 experiment; HepaRG cells, electroporation with 1,000 nM antisense oligonucleotide, approx. 24 hours; PKK mRNA by RT-PCR (RTS3454), relative to untreated control cells
Strand notation (5' to 3'): a small letter for the sugar, then the base; units joined by * are phosphorothioate-linked, units joined directly phosphodiester-linked; [ ] holds rarer units or linkages, { } end groups; capitals alone tell only the bases. e = 2'-O-(2-methoxyethyl) (MOE); k = constrained ethyl (cEt); [5mC] = 5-methylcytosine; d = 2'-deoxy (DNA)
MEASURED_PROPERTY: % inhibition (%)

- 547885 (e[5mC]*eT*k[5mC]*dT*dG*d[5mC]*d[5mC]*dT*dT*dG*dT*dG*dA*kA*kA*eT; antisense) [compound 547885]: 57
- 547854 (antisense eA*eT*k[5mC]*dA*dA*d[5mC]*dT*d[5mC]*d[5mC]*dT*dT*dT*dA*kT*kA*eA) [compound 547854]: 9
- 547913 (eG*e[5mC]*kA*dA*d[5mC]*dA*dT*d[5mC]*d[5mC]*dA*d[5mC]*dA*dT*k[5mC]*kT*eG; antisense) [compound 547913]: 61
- 547918 (eA*eA*k[5mC]*d[5mC]*d[5mC]*dT*dG*dG*d[5mC]*dA*dA*d[5mC]*dA*kT*k[5mC]*e[5mC]; antisense) [compound 547918]: 65
- 547856 (antisense e[5mC]*eA*kT*dA*dT*d[5mC]*dA*dA*d[5mC]*dT*d[5mC]*d[5mC]*dT*kT*kT*eA) [compound 547856]: 51
- 547882 (e[5mC]*eT*kG*dG*d[5mC]*dA*dG*d[5mC]*dG*dA*dA*dT*dG*kT*kT*eA; antisense) [compound 547882]: 96

###

System: human PKK mRNA
PROTOCOL: Antisense inhibition of human PKK mRNA in HepaRG cells, 1,000 nM, MOE/deoxy/cEt oligonucleotides (Example 3)
Type: cell-based
PROTOCOL_CONDITIONS: HepaRG cells, electroporation with 1,000 nM antisense oligonucleotide, approximately 24 hours, primer probe set RTS3454, relative to untreated control cells; experiment of Table 24
Strand notation (5' to 3'): a small letter for the sugar, then the base; units joined by * are phosphorothioate-linked, units joined directly phosphodiester-linked; [ ] holds rarer units or linkages, { } end groups; capitals alone tell only the bases. e = 2'-O-(2-methoxyethyl) (MOE); k = constrained ethyl (cEt); [5mC] = 5-methylcytosine; d = 2'-deoxy (DNA)
MEASURED_PROPERTY: % inhibition (%)

* 548003 (eT*eA*kA*d[5mC]*d[5mC]*dA*dG*dA*dG*d[5mC]*dT*d[5mC]*d[5mC]*k[5mC]*kT*eT; antisense) [compound 548003] | 66
* 548073 (e[5mC]*eT*kT*dT*d[5mC]*dT*d[5mC]*d[5mC]*dT*dT*d[5mC]*dG*dA*kG*kA*eA; antisense) [compound 548073] | 24
* 548002 (antisense eA*eA*k[5mC]*d[5mC]*dA*dG*dA*dG*d[5mC]*dT*d[5mC]*d[5mC]*d[5mC]*kT*kT*eG) [compound 548002] | 56
* 548055 (eG*eT*kA*dA*dT*dT*d[5mC]*dA*dA*dA*dG*dG*dA*kG*k[5mC]*e[5mC]; antisense) [compound 548055] | 78
* 548053 (eA*eT*kT*d[5mC]*dA*dA*dA*dG*dG*dA*dG*d[5mC]*d[5mC]*kT*kG*eG; antisense) [compound 548053] | 36
* 548061 (eG*e[5mC]*kT*dT*dG*dT*dG*dT*d[5mC]*dA*d[5mC]*d[5mC]*dT*kT*kT*eG; antisense) [compound 548061] | 86
* 548001 (antisense eA*e[5mC]*k[5mC]*dA*dG*dA*dG*d[5mC]*dT*d[5mC]*d[5mC]*d[5mC]*dT*kT*kG*eT) [compound 548001] | 64
* 548018 (e[5mC]*e[5mC]*kA*dA*dG*dA*dA*dG*dA*dG*dT*dT*dT*kG*kT*eT; antisense) [compound 548018] | 22
* 548038 (eT*eA*kA*dT*dG*dT*d[5mC]*dT*dG*dA*d[5mC]*dA*dG*kA*kT*eT; antisense) [compound 548038] | 67
* 547999 (antisense e[5mC]*e[5mC]*kT*dT*dG*dT*dG*dT*d[5mC]*d[5mC]*d[5mC]*dA*dT*kA*k[5mC]*eG) [compound 547999] | 50
* 548058 (eG*e[5mC]*kA*dT*dA*dT*dT*dG*dG*dT*dT*dT*dT*kT*kG*eG; antisense) [compound 548058] | 71
* 548011 (e[5mC]*e[5mC]*kA*dG*dT*dG*dT*dT*dA*d[5mC]*dA*d[5mC]*dA*kA*kT*e[5mC]; antisense) [compound 548011] | 14
* 548025 (eT*eG*kA*dG*d[5mC]*dT*dG*dT*d[5mC]*dA*dG*d[5mC]*dT*kT*k[5mC]*eA; antisense) [compound 548025] | 66
* 548064 (eT*eG*kG*dT*dA*dT*dA*dA*dA*dT*dT*dG*dT*kG*k[5mC]*eT; antisense) [compound 548064] | 54
* 548017 (e[5mC]*eA*kA*dG*dA*dA*dG*dA*dG*dT*dT*dT*dG*kT*kT*e[5mC]; antisense) [compound 548017] | 3
* 548044 (eT*eG*kG*dT*dG*dA*dA*dT*dA*dA*dT*dA*dA*kT*k[5mC]*eT; antisense) [compound 548044] | 12
* 548031 (eG*eA*kT*dG*d[5mC]*dG*d[5mC]*d[5mC]*dA*dA*dA*d[5mC]*dA*kT*k[5mC]*e[5mC]; antisense) [compound 548031] | 73
* 548009 (eG*eT*kT*dA*d[5mC]*dA*d[5mC]*dA*dA*dT*d[5mC]*dT*d[5mC]*kA*kA*eA; antisense) [compound 548009] | 47
* 531231 (eT*eA*eT*e[5mC]*eA*d[5mC]*dT*dG*dT*dA*d[5mC]*dT*dA*dG*dT*eT*eT*e[5mC]*e[5mC]*eT) [compound 531231] | 0
* 548023 (eG*e[5mC]*kT*dT*d[5mC]*dA*d[5mC]*d[5mC]*dT*dG*d[5mC]*dA*dG*kG*k[5mC]*eT; antisense) [compound 548023] | 58
* 548008 (eT*e[5mC]*kT*d[5mC]*dA*dA*dA*dG*dA*dG*dT*dA*dA*k[5mC]*k[5mC]*eA; antisense) [compound 548008] | 71
* 548032 (eA*eG*kA*dT*dG*d[5mC]*dG*d[5mC]*d[5mC]*dA*dA*dA*d[5mC]*kA*kT*e[5mC]; antisense) [compound 548032] | 51
* 548010 (eA*eG*kT*dG*dT*dT*dA*d[5mC]*dA*d[5mC]*dA*dA*dT*k[5mC]*kT*e[5mC]; antisense) [compound 548010] | 80
* 548065 (eT*eT*kG*dG*dT*dA*dT*dA*dA*dA*dT*dT*dG*kT*kG*e[5mC]; antisense) [compound 548065] | 22
* 548028 (eG*eG*kT*dG*dT*d[5mC]*d[5mC]*dT*dA*dT*dG*dA*dG*kT*kG*eA; antisense) [compound 548028] | 38
